B1: HMOX1 (parent)
chain: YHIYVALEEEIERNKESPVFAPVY

Variants of: B1
Assay: protein stability index of a GFP-peptide fusion (GPS, HEK-293T) (PSI 1-6); higher = more stable;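 further: lentivirally expressed fusions sorted by FACS into six bins by GFP to DsRed ratio, PSI derived from sequencing read proportions per bin multiplied by bin number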
Settings: c terminus: a fixed tail appended

variant: R13G
protein stability index: 1.55
--
variant: P22K
protein stability index: 2.14
--
variant: A6C
protein stability index: 1.64
--
variant: Y24T
protein stability index: 2.96
--
variant: H2P
protein stability index: 2.62
--
variant: L7A
protein stability index: 2.34
--
variant: R13V
protein stability index: 2.02
--
variant: P18W
protein stability index: 2.31
--
variant: P22V
protein stability index: 3.15
--
variant: I3W
protein stability index: 2.12
--
variant: A6S
protein stability index: 1.74
--
variant: E9Y
protein stability index: 1.98
--
variant: E16H
protein stability index: 2.08
--
variant: I11M
protein stability index: 2.16
--
variant: Y1R
protein stability index: 2.73
--
variant: A6P
protein stability index: 1.99
--
variant: E12R
protein stability index: 1.62
--
variant: H2L
protein stability index: 2.17
--
variant: P22T
protein stability index: 2.1
--
variant: F20Q
protein stability index: 2.42
--
variant: A6K
protein stability index: 2.42
--
variant: I11N
protein stability index: 1.48

Origin of the recorded values: the supplement of paper PMC10567573
